FYI, the data here is from patent US20250127845A1.

- Test system: PC3 cells
- assay.overview: Clonogenic assay, PC3 cells
- Assay type: cell-based, human
- assay.context: Homo sapiens, PC-3; PC3 clonogenic assay; read-out: IC50 of bicalutamide
observable: IC50

| compound | obs.value |
| --- | --- |
| CC(O)(CS(=O)(=O)c1ccc(F)cc1)C(=O)Nc1ccc(C#N)c(C(F)(F)F)c1 (stereo not shown) [BIC, bicalutamide, reference compound] | 10 µM |
